meta.source: PubChem BioAssay (NCI)

Test system: NCI-H522 lung
run.description: NCI-60 one-dose screen, 48 h (100 = growth as untreated, 0 = no growth, -100 = all killed)
conditions.used: 10 µM unless noted
About 83,000 compounds went through this panel and 20% of them were active in at least one assay; those are over-represented in the sample as a whole.
parameter: growth (%)
API: value field is a number in %; no unit string.

Observe how each entry below is paired with its result.
compound=Brc1ccccc1/C=N/Nc1nc(N/N=C/c2ccccc2Br)nc(N2CCOCC2)n1 recorded_value=86.6
compound=O=C(CNc1nc(-c2cccc([N+](=O)[O-])c2)cs1)Nc1cccc([N+](=O)[O-])c1 recorded_value=-36.2
compound=NC(N)=Nc1ccc(Oc2cccc(Nc3ccc(Br)c(C(F)(F)F)c3)c2)cc1 recorded_value=15
compound=C#Cc1ccc(C(=O)NCc2ccc(/C=C/C(=O)c3nccn3C)cc2)cc1 recorded_value=25.9
compound=CC/C(=C/c1c(O)cccc1OC)c1ccc2c(OC)cccc2[o+]1 recorded_value=93.2
compound=CCN(CC)CCn1c2ccc(O)cc2c2sc3cc(OC)ccc3c(=O)c21 recorded_value=30.1

Q: What value of measured growth is listed for `Cc1cc(C)c2sc(=O)n(Cc3nnc(SCCC(=O)O)o3)c2n1` ?
A: 100

Q: Next compound up: `N=c1c2cc(-c3ccccc3)oc2ncn1/N=C/c1ccc(Cl)cc1`
A: 91.6

Q: Next compound up: `COc1ccc(-n2c(SCc3nnc(NC(=O)c4ccc(Br)cc4)s3)nc3cc(OC)c(OC)cc3c2=O)cc1`
A: 89.2

Q: Next compound up: CNc1ncc2cc(-c3ccc(-c4ncccc4F)cc3Cl)c(=O)n(CC3OCC(N)CO3)c2n1 (stereo not given)
A: 75.7

###

Tested on: SN12C renal
run.description: NCI-60 one-dose screen, 48 h (100 = growth as untreated, 0 = no growth, -100 = all killed)
conditions.used: 10 µM unless noted
The panel holds about 83,000 compounds, 20% with a hit somewhere; the sample as a whole holds those more often.
parameter: growth (%)
API: value field is a number in %; no unit string.

Observe how each entry below is paired with its result.
compound=CC(C)(O)c1cncc(-c2ccc3ncnc(NCc4ccccc4)c3c2)c1 recorded_value=57.6
compound=COc1cccc(O)c1/C=C(/C)c1ccc2c(OC)cccc2[o+]1 recorded_value=99.5
compound="O=C(NNc1nc2cc(F)ccc2n2c(CN3CCC(O)C3)ccc12)c1cnccn1 (stereo not given)" recorded_value=24.3
compound=N#Cc1cccc(CN2CCC3=C(C2)C(=O)N(Cc2ccc(Cl)cc2)C2=NCCN23)c1 recorded_value=23.9
compound=CC(C)(C)c1ccc(-c2nnc(-c3nc4ccccc4nc3Cl)o2)cc1 recorded_value=86.2

Q: What value of measured growth is listed for `Clc1ccc(N/N=c2/oc3ccccc3cc2-c2cc3ccccc3[nH]2)cc1` ?
A: 70.9

Q: Next compound up: C#CC(=O)N(c1ccc(OC)cc1OC)C(C(=O)NCC(=O)OCC)c1cccs1 (stereo not given)
A: 44.9

###

Tested on: CCRF-CEM leukemia
run.description: NCI-60 one-dose screen, 48 h (100 = growth as untreated, 0 = no growth, -100 = all killed)
conditions.used: 10 µM unless noted
The panel holds about 83,000 compounds, 20% with a hit somewhere; the sample as a whole holds those more often. Activity calls are given as the source filed them. Rule for the calls: active = growth percent below 10; inactive = the rest.
parameter: growth

smiles_input=Nc1nc(-c2cccc([N+](=O)[O-])c2)c(N=Nc2ccccc2)s1 recorded_value="48.4% (inactive)"
smiles_input=COc1ccc(NC(=O)CSc2nnc(-c3ccc4nc(-c5ccccc5)[nH]c4c3)o2)cc1 recorded_value="91.6% (inactive)"
smiles_input=Cc1nn(-c2ccccc2)c2ncnc(N/N=C/c3ccccc3O)c12 recorded_value="8.92% (active)"
smiles_input=COc1ccc(Oc2ccc(/C=N/NC(=O)CSc3nc4ccccc4c(=O)n3-c3ccc(Cl)cc3)cc2)cc1 recorded_value="63.5% (inactive)"
smiles_input=C[C@H](CCC(=O)NCc1ccc(C(=O)Nc2ccccc2N)cc1)[C@H]1CC[C@H]2[C@@H]3[C@@H](O)C[C@@H]4C[C@H](O)CC[C@]4(C)[C@H]3CC[C@]12C recorded_value="7.16% (active)"

Q: What value of measured growth is listed for `NC(N)=Nc1ccc(Oc2cccc(NC(N)=Nc3ccc(Cl)c(C(F)(F)F)c3)c2)cc1` ?
A: 61.8% (inactive)

Q: Next compound up: `COc1ccc(-c2nc3cc(Cl)c(Cl)cc3n2CC(=O)N=Nc2c(O)[nH]c3ccc(OC)cc23)cc1`
A: 61.6% (inactive)

Q: Next compound up: `C=C(C=O)[C@@H]1CC[C@]2(CO)CC[C@]3(C)[C@H](CC[C@@H]4[C@@]5(C)CCCNC(C)(C)[C@@H]5CC[C@]43C)[C@@H]12`
A: 2.49% (active)

Q: Next compound up: `CC(C)(C)c1ccc(CC(=O)Nc2sc3c(c2C(N)=O)CCC(=O)C3)cc1`
A: 10.8% (inactive)
